pKi: −log10 of the molar value.
Record set of pKi for target or system Bcl-xL (Homo sapiens, UniProt Q07817).

Reference set (2 entries):
COc1c(CN2O[C@@H](CNC(C)=O)[C@@H]([C@H](C)O)[C@H]2C(=O)N[C@H]2C[C@H]3C[C@@H]([C@@H]2C)C3(C)C)cccc1-c1cc(C(=O)NCCc2ccccc2)cc(N(C)C)c1 [Compound 76] :: < 5.00
COc1c(CN2O[C@@H](CO)[C@@H]([C@H](C)O)[C@H]2C(=O)N[C@H]2C[C@H]3C[C@@H]([C@@H]2C)C3(C)C)cccc1-c1cc(C(=O)N2CCN(C)C[C@@H]2Cc2ccccc2)cc(N(C)C)c1 [Compound 193] :: 5.30 to 6.00

Inquiry: Would you kindly share the measured pKi for COC(=O)[C@H](Cc1ccccc1)NC(=O)c1cc(-c2cccc(CN3O[C@@H](CN)[C@@H]([C@H](C)O)[C@H]3C(=O)N[C@H]3C[C@H]4C[C@@H]([C@@H]3C)C4(C)C)c2OC)cc(N(C)C)c1 [Compound 65] ?
Reply text: < 5.00
